- System: Wolbachia pipientis
- ASSAY COMMENT: Anti-Wolbachia Cell-Based Screen
- Format: functional
- Parameters: scale not given: in the data most compounds retested in dose-response had high values
- STATED CONDITIONS: 5 µM
Hit rate of the full screen: of about 48,000 compounds, about 13,000 (27%) showed an effect of 50% or more. This is one part of the list.
MEASURED ATTRIBUTE: Percent Effect (%)
Provide the reading as a plain figure in %.

MOLECULE	TESTED ON	NUMERIC VALUE
CCOCc1ncn2c1CN(S(=O)(=O)c1ccc(F)cc1)CC2	Wolbachia pipientis	3.769
c1ccc(OCCNc2ncnc3sc4c(c23)CCNC4)cc1	Wolbachia pipientis	38.96
O=C(Nc1ccccc1)N1CCn2nnc(COc3cccnc3)c2C1.O=C(O)C(F)(F)F	Wolbachia pipientis	-20.87
CN(C)c1ncnc2c1CCN(c1ccccc1)CC2	Wolbachia pipientis	9.479
O=C(Cn1cc(C(=O)O)ccc1=O)Nc1ccc(F)cc1Cl	Wolbachia pipientis	-4.302

stdin: Requested read-out Percent Effect, target or system Wolbachia pipientis, entry CCN(C(=O)CS(=O)(=O)Cc1cc(Cl)c2c(c1)OCCCO2)C1CC1
stdout: 3.578

stdin: Requested read-out Percent Effect, target or system Wolbachia pipientis, entry Cn1ccc(C(=O)NC2CCC23CCN(CC2CCOCC2)CC3)c1.O=C(O)C(F)(F)F (configuration not stated)
stdout: 102.1

* * *

- System: Wolbachia pipientis
- ASSAY COMMENT: Anti-Wolbachia Cell-Based Screen
- Format: functional
- Design: scale not given: in the data most compounds retested in dose-response had high values
- STATED CONDITIONS: 5 µM
Hit rate of the full screen: of about 48,000 compounds, about 13,000 (27%) showed an effect of 50% or more. Some of the results follow.
Reported Percent Effect is given for each of the following molecules.
Provide the reading as a plain figure in %.

Below: 4 molecules and their reported Percent Effect.
MOLECULE	TESTED ON	Percent Effect [%]
Cc1ccc(CN2CC(C(=O)NCC3CC3)C3(CCOCC3)C2)s1.O=C(O)C(F)(F)F (stereo not given)	Wolbachia pipientis	9.43
COc1cccc(NC(=O)N2CCC(O)(C(F)(F)F)C2)c1 (stereo not given)	Wolbachia pipientis	-18.52
COC(=O)CC1CCCCN1CC(=O)NCCc1ccc(F)cc1 (stereo not given)	Wolbachia pipientis	106.1
CCOC(=O)N1CCN(CC(=O)Nc2ccc(F)cc2Cl)CC1	Wolbachia pipientis	-11.41

Consider the record given below.
stdin: Tell me the measured Percent Effect of COCc1ncn2c1CN(C(=O)Nc1ccccc1)CC2 , please.
stdout: 105.1
